- Test Target: VvGT15a (Vitis vinifera, UniProt F6GUW0)
- Sequence (F6GUW0 entry or part of it): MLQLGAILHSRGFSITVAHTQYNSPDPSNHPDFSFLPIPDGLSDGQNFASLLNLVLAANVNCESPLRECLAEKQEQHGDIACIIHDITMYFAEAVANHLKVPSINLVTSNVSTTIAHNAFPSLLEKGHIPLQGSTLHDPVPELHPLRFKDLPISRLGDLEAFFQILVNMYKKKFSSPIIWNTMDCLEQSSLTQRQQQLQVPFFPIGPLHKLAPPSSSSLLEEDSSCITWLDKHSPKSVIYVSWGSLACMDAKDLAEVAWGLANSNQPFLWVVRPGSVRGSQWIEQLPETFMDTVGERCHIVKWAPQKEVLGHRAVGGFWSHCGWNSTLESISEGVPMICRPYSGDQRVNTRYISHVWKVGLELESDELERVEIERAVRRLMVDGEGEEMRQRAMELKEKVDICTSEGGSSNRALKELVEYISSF
- Protocol Text: Substrate screening, radiochemical activity assay with UDP-[14C]glucose
- Type: biochemical
- Measurement Parameters: substrate screening, Figure 3
Readout Type: conversion of putative substrate (in words)

>>> print(df.to_string())
                                   compound                measured
0                       CCCCCCCCO [octanol]  glucosylated primarily
1              CCC/C=C/CO [trans 2-hexenol]             able to use
2  CC(C)=CCC/C(C)=C/CO [Geraniol, (E)-3,7-dimethyl-2,6-octadien-1-ol]  glucosylated primarily
3  CC(C)=CCCC(C)CCO (racemic) [citronellol (rac), (R,S)-3,7-dimethyl-6-octen-1-ol]  glucosylated primarily
4  C=CC(C)(O)CCC=C(C)CO (centres unmarked) [8-hydroxylinalool]             able to use
5  CC(C)=CCC/C(C)=C\CO [Nerol, (Z)-3,7-dimethyl-2,6-octadien-1-ol]  glucosylated primarily
6                         CCCCCCO [hexanol]  glucosylated primarily

* * *

- Test Target: VvGT14a (Vitis vinifera, UniProt F6H0R6)
- Sequence (F6H0R6 entry or part of it): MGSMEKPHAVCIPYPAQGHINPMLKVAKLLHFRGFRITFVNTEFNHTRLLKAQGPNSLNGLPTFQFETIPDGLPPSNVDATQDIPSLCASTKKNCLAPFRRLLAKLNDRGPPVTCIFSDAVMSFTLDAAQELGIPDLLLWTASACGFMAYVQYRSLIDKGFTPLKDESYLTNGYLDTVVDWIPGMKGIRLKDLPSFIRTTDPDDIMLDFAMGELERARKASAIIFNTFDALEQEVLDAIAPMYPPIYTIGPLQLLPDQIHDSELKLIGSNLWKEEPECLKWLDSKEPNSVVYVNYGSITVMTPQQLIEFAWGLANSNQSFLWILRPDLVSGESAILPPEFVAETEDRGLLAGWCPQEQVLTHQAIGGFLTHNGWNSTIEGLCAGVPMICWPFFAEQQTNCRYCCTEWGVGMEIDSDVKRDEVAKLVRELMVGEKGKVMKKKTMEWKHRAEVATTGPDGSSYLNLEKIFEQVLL
- Protocol Text: Substrate screening, radiochemical activity assay with UDP-[14C]glucose
- Assay type: biochemical
- Measurement Parameters: relative to conversion of geraniol (100 %), extractable radioactivity
Readout Type: relative specific activity

                           smiles_structure                               test_target                readout_type  measured
0  Oc1cc(O)c2cc(O)c(-c3ccc(O)c(O)c3)[o+]c2c1  VvGT14a (Vitis vinifera, UniProt F6H0R6)  relative specific activity      < 1%
1                                   CCCCCCO  VvGT14a (Vitis vinifera, UniProt F6H0R6)  relative specific activity     > 80%
2                                 CCCCCCCCO  VvGT14a (Vitis vinifera, UniProt F6H0R6)  relative specific activity     > 80%

* * *

Recorded Km values for a group of molecules are listed next.
- Test Target: VvGT14a (Vitis vinifera)
- Type: biochemical
- Measurement Parameters: monoterpenols at constant UDP-glucose […]; UDP-glucose at fixed geraniol 100 µM; Tris-HCl pH 8.5, 30 °C
Readout Type: Km (µM)

In [3]: df
Out[3]:
                                   molecule  readout_unit  measured
0  CC(C)=CCC/C(C)=C/CO [Geraniol, (E)-3,7-dimethyl-2,6-octadien-1-ol]            µM         9
1  CC(C)=CCC/C(C)=C\CO [Nerol, (Z)-3,7-dimethyl-2,6-octadien-1-ol]            µM        10
2  CC(C)=CCCC(C)CCO (racemic) [citronellol (rac), (R,S)-3,7-dimethyl-6-octen-1-ol]            µM         9
3  C=CC(C)(O)CCC=C(C)CO (centres unmarked) [8-hydroxylinalool]            µM        48
4  C=CC(C)(O)CCC=C(C)C (racemic) [linalool (rac), (R,S)-3,7-dimethyl-1,6-octadien-3-ol]            µM        47

* * *

Entries and their Km
- Test Target: VvGT15a (Vitis vinifera)
- Assay type: biochemical
- Measurement Parameters: substrates at fixed UDP-glucose 833 µM; UDP-glucose at constant geraniol 1.25 mM; Tris-HCl pH 7.5, 30 °C
- Procedure: The measurements were performed under the following conditions. […] The assay of VvGT15a-c was performed at 30 °C using a Tris-HCl buffer (100 mM, 10 mM 2-mercaptoethanol, pH 7.5) and 10 min (VvGT15c) or 30 min (VvGT15a-b) of incubation for the best substrates. […] Radioactivity was determined by LSC. The KM- and vmax-values were calculated from Lineweaver-Burk plots, Hanes-Woolf plots and non-linear fitting of the experimental data.
Readout Type: Km (µM)

>>> print(df.to_string())
                                   compound               test_target  readout_type  measured
0  CC(C)=CCC/C(C)=C/CO [Geraniol, (E)-3,7-dimethyl-2,6-octadien-1-ol]  VvGT15a (Vitis vinifera)            Km        63
1  CC(C)=CCC/C(C)=C\CO [Nerol, (Z)-3,7-dimethyl-2,6-octadien-1-ol]  VvGT15a (Vitis vinifera)            Km        48
2                      CC(C)=CCC[C@H](C)CCO  VvGT15a (Vitis vinifera)            Km        29
3  C=CC(C)(O)CCC=C(C)CO (stereo not shown) [8-hydroxylinalool]  VvGT15a (Vitis vinifera)            Km        32

* * *

- Test Target: VvGT15c (Vitis vinifera)
- Assay type: biochemical
- Measurement Parameters: substrates at fixed UDP-glucose 833 µM; UDP-glucose at constant geraniol 1.25 mM; Tris-HCl pH 7.5, 30 °C
Readout Type: Km (µM)

>>> df
                                   compound  readout_unit  measured
0  C=CC(C)(O)CCC=C(C)CO (stereo not shown) [8-hydroxylinalool]            µM        17
1  CC(C)=CCC/C(C)=C/CO [Geraniol, (E)-3,7-dimethyl-2,6-octadien-1-ol]            µM        43
2      CC(C)=CCC[C@H](C)CCO [S-citronellol]            µM        20
3  CC(C)=CCC/C(C)=C\CO [Nerol, (Z)-3,7-dimethyl-2,6-octadien-1-ol]            µM        28

* * *

- Test Target: VvGT15c (Vitis vinifera)
- Protocol Text: Substrate screening, radiochemical activity assay with UDP-[14C]glucose
- Format: biochemical
- Measurement Parameters: substrate screening, Figure 3
Readout Type: conversion of putative substrate (in words)

                                   compound               test_target                measured
0  CC(C)=CCC/C(C)=C/CO [Geraniol, (E)-3,7-dimethyl-2,6-octadien-1-ol]  VvGT15c (Vitis vinifera)  glucosylated primarily
1              CCC/C=C/CO [trans 2-hexenol]  VvGT15c (Vitis vinifera)             able to use
2  CC(C)=CCC/C(C)=C\CO [Nerol, (Z)-3,7-dimethyl-2,6-octadien-1-ol]  VvGT15c (Vitis vinifera)  glucosylated primarily
3  CC(C)=CCCC(C)CCO (racemic) [citronellol (rac), (R,S)-3,7-dimethyl-6-octen-1-ol]  VvGT15c (Vitis vinifera)  glucosylated primarily
4  C=CC(C)(O)CCC=C(C)CO (stereo not shown) [8-hydroxylinalool]  VvGT15c (Vitis vinifera)             able to use
5                         CCCCCCO [hexanol]  VvGT15c (Vitis vinifera)  glucosylated primarily
6                       CCCCCCCCO [octanol]  VvGT15c (Vitis vinifera)  glucosylated primarily

* * *

- Test Target: VvGT14a (Vitis vinifera)
- Assay type: biochemical
- Measurement Parameters: pH 8.5
// kcat lookup, one value per entry
Readout Type: kcat

>>> print(df.to_string())
                                   compound  readout_type    measured
0  CC(C)=CCCC(C)CCO (racemic) [citronellol (rac), (R,S)-3,7-dimethyl-6-octen-1-ol]          kcat    0.02 s⁻¹
1  C=CC(C)(O)CCC=C(C)C (racemic) [linalool (rac), (R,S)-3,7-dimethyl-1,6-octadien-3-ol]          kcat  0.0003 s⁻¹
2  CC(C)=CCC/C(C)=C\CO [Nerol, (Z)-3,7-dimethyl-2,6-octadien-1-ol]          kcat    0.02 s⁻¹
3  C=CC(C)(O)CCC=C(C)CO (centres unmarked) [8-hydroxylinalool]          kcat   0.002 s⁻¹
4  CC(C)=CCC/C(C)=C/CO [Geraniol, (E)-3,7-dimethyl-2,6-octadien-1-ol]          kcat    0.02 s⁻¹

* * *

- Test Target: VvGT14a (Vitis vinifera)
- Protocol Text: Substrate screening, radiochemical activity assay with UDP-[14C]glucose
- Type: biochemical
- Measurement Parameters: relative to conversion of geraniol (100 %), extractable radioactivity
List of relative specific activity values.
Readout Type: relative specific activity

In [3]: df
Out[3]:
                                   compound  measured
0  O=c1c(O)c(-c2ccc(O)c(O)c2)oc2cc(O)cc(O)c12      < 1%
1   O=c1c(O)c(-c2ccc(O)cc2)oc2cc(O)cc(O)c12      < 1%
2      Oc1ccc(-c2[o+]c3cc(O)cc(O)c3cc2O)cc1      < 1%
3  CC(C)=CCC/C(C)=C\CO [Nerol, (Z)-3,7-dimethyl-2,6-octadien-1-ol]     > 80%
4  CC(C)=CCC/C(C)=C/CO [Geraniol, (E)-3,7-dimethyl-2,6-octadien-1-ol]      100%
